Tested on: Mtb H37Rv
ASSAY: Resazurin reduction microplate assay, growth inhibition of Mtb H37Rv
Format: cell-based, Mycobacterium tuberculosis
CONDITION DESCRIPTION: Mycobacterium tuberculosis, H37RV, average of two independent experiments, each in triplicate; read-out: MIC50 Mtb H37Rv
# key: entry, value: MIC50

Use these answered entries as a reference point.
# get_value(readout='MIC50', item= `C[C@@H]([C@H](NC(=O)[C@@H](NC(=O)N[C@@H](Cc1c[nH]c2ccccc12)C(=O)O)c1ccccc1)C(=O)NC[C@H]1C[C@@H](O)[C@H](n2ccc(=O)[nH]c2=O)O1)N(C)C(=O)CN` )
> 6.25 µM

# get_value(readout='MIC50', item= `C[C@@H]([C@H](NC(=O)[C@H](CCc1ccccc1)NC(=O)N[C@@H](Cc1c[nH]c2ccccc12)C(=O)O)C(=O)NC[C@H]1C[C@@H](O)[C@H](n2ccc(=O)[nH]c2=O)O1)N(C)C(=O)CN` )
1.08 µM

# get_value(readout='MIC50', item= `CC(C)C[C@H](NC(=O)N[C@@H](Cc1c[nH]c2ccccc12)C(=O)O)C(=O)N[C@H](C(=O)NC[C@H]1C[C@@H](O)[C@H](n2ccc(=O)[nH]c2=O)O1)[C@H](C)N(C)C(=O)[C@@H](N)Cc1cccnc1` )
5.85 µM

# get_value(readout='MIC50', item= `CC(C)C[C@H](NC(=O)N[C@@H](Cc1c[nH]c2ccccc12)C(=O)O)C(=O)N[C@H](C(=O)NC[C@H]1C[C@@H](O)[C@H](n2ccc(=O)[nH]c2=O)O1)[C@H](C)N(C)C(=O)[C@@H](N)CCCCN` )
1.35 µM

# get_value(readout='MIC50', item= `CCCCC[C@H](NC(=O)N[C@@H](Cc1c[nH]c2ccccc12)C(=O)O)C(=O)N[C@H](C(=O)NC[C@H]1C[C@@H](O)[C@H](n2ccc(=O)[nH]c2=O)O1)[C@H](C)N(C)C(=O)CN` )
0.51 µM

# get_value(readout='MIC50', item= `C[C@@H]([C@H](NC(=O)[C@H](Cc1ccc(O)cc1)NC(=O)N[C@@H](Cc1c[nH]c2ccccc12)C(=O)O)C(=O)NC[C@H]1C[C@@H](O)[C@H](n2ccc(=O)[nH]c2=O)O1)N(C)C(=O)CN` )
0.44 to 0.98 µM

# get_value(readout='MIC50', item= `C[C@@H]([C@H](NC(=O)[C@H](CC1CCCCC1)NC(=O)N[C@@H](Cc1c[nH]c2ccccc12)C(=O)O)C(=O)NC[C@H]1C[C@@H](O)[C@H](n2ccc(=O)[nH]c2=O)O1)N(C)C(=O)[C@@H](N)Cc1cccc(O)c1` )
0.037 µM

# get_value(readout='MIC50', item= `C[C@@H]([C@H](NC(=O)[C@H](Cc1ccccc1)NC(=O)N[C@@H](Cc1c[nH]c2ccccc12)C(=O)O)C(=O)NC[C@H]1C[C@@H](O)[C@H](n2ccc(=O)[nH]c2=O)O1)N(C)C(=O)CN` )
0.26 µM

***
# get_value(readout='MIC50', item= `CC[C@@H](C)[C@H](NC(=O)N[C@@H](Cc1c[nH]c2ccccc12)C(=O)O)C(=O)N[C@H](C(=O)NC[C@H]1C[C@@H](O)[C@H](n2ccc(=O)[nH]c2=O)O1)[C@H](C)N(C)C(=O)CN` )
0.93 µM
